For each of the compounds below, state its spin-lattice (T₁) relaxation value.
# assay-method-text: Paramagnetic relaxation properties in water at 10 MHz (0.15T), RADX spin analyzer
# Format: physicochemical
# measurement-context: 0.97 mM solution in water, 10 MHz (0.15T), 37°C, triplicate, mean +/- SD
Dear colleague, please return just the value in ms, with no unit written.

Bench note: what spin-lattice (T₁) relaxation value did `C[C@@H](O)[C@H](N)C(=O)O.C[C@@H](O)[C@H](N)C(=O)O.O.O.[Cl-].[Cl-].[Mn+2]` show?
105

Bench note: what spin-lattice (T₁) relaxation value did `N=C(N)NCCC[C@H](N)C(=O)O.N=C(N)NCCC[C@H](N)C(=O)O.O.O.[Cl-].[Cl-].[Mn+2]` show?
348

Bench note: what spin-lattice (T₁) relaxation value did `CC(C)[C@H](N)C(=O)O.CC(C)[C@H](N)C(=O)O.O.O.[Cl-].[Cl-].[Mn+2]` show?
113

Bench note: what spin-lattice (T₁) relaxation value did `CSCC[C@H](N)C(=O)O.CSCC[C@H](N)C(=O)O.O.O.[Cl-].[Cl-].[Mn+2]` show?
106

Bench note: what spin-lattice (T₁) relaxation value did `NCCCC[C@H](N)C(=O)O.NCCCC[C@H](N)C(=O)O.O.O.[Cl-].[Cl-].[Mn+2]` show?
108

Bench note: what spin-lattice (T₁) relaxation value did `N[C@@H](Cc1c[nH]cn1)C(=O)O.N[C@@H](Cc1c[nH]cn1)C(=O)O.O.O.[Cl-].[Cl-].[Mn+2]` show?
112

Bench note: what spin-lattice (T₁) relaxation value did `N[C@@H](CS)C(=O)O.N[C@@H](CS)C(=O)O.O.O.[Cl-].[Cl-].[Mn+2]` show?
105

====

For each of the molecules below, state its R₁.
# assay-method-text: Paramagnetic relaxation properties in human plasma at 37°C
# Format: physicochemical
# measurement-context: 37°C
Dear colleague, please return just the value in mM⁻¹ s⁻¹, with no unit written.

Bench note: what R₁ did `C[C@H](N)C(=O)O.C[C@H](N)C(=O)O.O.O.[Cl-].[Cl-].[Mn+2]` show?
44.7

Bench note: what R₁ did `C[C@@H](O)[C@H](N)C(=O)O.C[C@@H](O)[C@H](N)C(=O)O.O.O.[Cl-].[Cl-].[Mn+2]` show?
45.1

Bench note: what R₁ did `O.O.O=C(O)[C@@H]1C[C@@H](O)CN1.O=C(O)[C@@H]1C[C@@H](O)CN1.[Cl-].[Cl-].[Mn+2]` show?
43.7

Bench note: what R₁ did `C[NH2+]CC(=O)[O-].C[NH2+]CC(=O)[O-].O.O.[Cl-].[Cl-].[Mn+2]` show?
46.4

Bench note: what R₁ did `N[C@@H](Cc1c[nH]cn1)C(=O)O.N[C@@H](Cc1c[nH]cn1)C(=O)O.O.O.[Cl-].[Cl-].[Mn+2]` show?
46.3

Bench note: what R₁ did `O.O.O=C(O)[C@@H]1CCCN1.O=C(O)[C@@H]1CCCN1.[Cl-].[Cl-].[Mn+2]` show?
46.5

Bench note: what R₁ did `N[C@@H](CC(=O)O)C(=O)O.N[C@@H](CC(=O)O)C(=O)O.O.O.[Cl-].[Cl-].[Mn+2]` show?
46.3

Bench note: what R₁ did `NC(=O)CC[C@H](N)C(=O)O.NC(=O)CC[C@H](N)C(=O)O.O.O.[Cl-].[Cl-].[Mn+2]` show?
44.3

Bench note: what R₁ did `CSCC[C@H](N)C(=O)O.CSCC[C@H](N)C(=O)O.O.O.[Cl-].[Cl-].[Mn+2]` show?
42.3

Bench note: what R₁ did `N[C@@H](Cc1ccc(O)cc1)C(=O)O.N[C@@H](Cc1ccc(O)cc1)C(=O)O.O.O.[Cl-].[Cl-].[Mn+2]` show?
49.3

Bench note: what R₁ did `N=C(N)NCCC[C@H](N)C(=O)O.N=C(N)NCCC[C@H](N)C(=O)O.O.O.[Cl-].[Cl-].[Mn+2]` show?
24.8

Bench note: what R₁ did `NCCCC[C@H](N)C(=O)O.NCCCC[C@H](N)C(=O)O.O.O.[Cl-].[Cl-].[Mn+2]` show?
47.3

====

# assay-method-text: Paramagnetic relaxation properties in human plasma at 37°C
# Assay type: physicochemical
# measurement-context: 37°C
For each of the compounds below, state its R₂.
Dear colleague, please return just the value in mM⁻¹ s⁻¹, with no unit written.

Bench note: what R₂ did `CSCC[C@H](N)C(=O)O.CSCC[C@H](N)C(=O)O.O.O.[Cl-].[Cl-].[Mn+2]` show?
52.8

Bench note: what R₂ did `C[C@H](N)C(=O)O.C[C@H](N)C(=O)O.O.O.[Cl-].[Cl-].[Mn+2]` show?
56.9

Bench note: what R₂ did `N[C@@H](CS)C(=O)O.N[C@@H](CS)C(=O)O.O.O.[Cl-].[Cl-].[Mn+2]` show?
57.2

Bench note: what R₂ did `N[C@@H](CC(=O)O)C(=O)O.N[C@@H](CC(=O)O)C(=O)O.O.O.[Cl-].[Cl-].[Mn+2]` show?
61.2

Bench note: what R₂ did `N[C@@H](Cc1c[nH]cn1)C(=O)O.N[C@@H](Cc1c[nH]cn1)C(=O)O.O.O.[Cl-].[Cl-].[Mn+2]` show?
58.4

Bench note: what R₂ did `CC(C)C[C@H](N)C(=O)O.CC(C)C[C@H](N)C(=O)O.O.O.[Cl-].[Cl-].[Mn+2]` show?
57.9

Bench note: what R₂ did `O.O.O=C(O)[C@@H]1CCCN1.O=C(O)[C@@H]1CCCN1.[Cl-].[Cl-].[Mn+2]` show?
53.2

Bench note: what R₂ did `NC(=O)C[C@H]([NH3+])C(=O)[O-].NC(=O)C[C@H]([NH3+])C(=O)[O-].O.O.[Cl-].[Cl-].[Mn+2]` show?
58.5

====

For each of the molecules below, state its T₂ relaxivity in plasma, fold greater than GdDTPA.
# assay-method-text: Paramagnetic relaxation properties in human plasma at 37°C
# Type: physicochemical
# measurement-context: versus GdDTPA
Dear colleague, please return just the value in fold, with no unit written.

Bench note: what T₂ relaxivity in plasma, fold greater than GdDTPA did `O.O.O=C(O)[C@@H]1CCCN1.O=C(O)[C@@H]1CCCN1.[Cl-].[Cl-].[Mn+2]` show?
11.1

Bench note: what T₂ relaxivity in plasma, fold greater than GdDTPA did `NCC(=O)O.NCC(=O)O.O.O.[Cl-].[Cl-].[Mn+2]` show?
12.0

Bench note: what T₂ relaxivity in plasma, fold greater than GdDTPA did `N[C@@H](Cc1ccc(O)cc1)C(=O)O.N[C@@H](Cc1ccc(O)cc1)C(=O)O.O.O.[Cl-].[Cl-].[Mn+2]` show?
14.8

====

# assay-method-text: Paramagnetic relaxation properties in human plasma at 37°C
# Assay type: physicochemical
# measurement-context: 37°C
For each of the compounds below, state its R₂.
Dear colleague, please return just the value in mM⁻¹ s⁻¹, with no unit written.

Bench note: what R₂ did `C[C@@H](O)[C@H](N)C(=O)O.C[C@@H](O)[C@H](N)C(=O)O.O.O.[Cl-].[Cl-].[Mn+2]` show?
55.5

Bench note: what R₂ did `N[C@@H](Cc1ccc(O)cc1)C(=O)O.N[C@@H](Cc1ccc(O)cc1)C(=O)O.O.O.[Cl-].[Cl-].[Mn+2]` show?
71.6

Bench note: what R₂ did `NC(=O)CC[C@H](N)C(=O)O.NC(=O)CC[C@H](N)C(=O)O.O.O.[Cl-].[Cl-].[Mn+2]` show?
59.1

Bench note: what R₂ did `N=C(N)NCCC[C@H](N)C(=O)O.N=C(N)NCCC[C@H](N)C(=O)O.O.O.[Cl-].[Cl-].[Mn+2]` show?
37.9

Bench note: what R₂ did `CC[C@H](C)[C@H](N)C(=O)O.CC[C@H](C)[C@H](N)C(=O)O.O.O.[Cl-].[Cl-].[Mn+2]` show?
61.1

Bench note: what R₂ did `CC(C)[C@H](N)C(=O)O.CC(C)[C@H](N)C(=O)O.O.O.[Cl-].[Cl-].[Mn+2]` show?
56.9

Bench note: what R₂ did `O.O.O=C(O)[C@@H]1C[C@@H](O)CN1.O=C(O)[C@@H]1C[C@@H](O)CN1.[Cl-].[Cl-].[Mn+2]` show?
56.9

Bench note: what R₂ did `N[C@@H](CO)C(=O)O.N[C@@H](CO)C(=O)O.O.O.[Cl-].[Cl-].[Mn+2]` show?
56.9

Bench note: what R₂ did `NCC(=O)O.NCC(=O)O.O.O.[Cl-].[Cl-].[Mn+2]` show?
57.8

Bench note: what R₂ did `C[NH2+]CC(=O)[O-].C[NH2+]CC(=O)[O-].O.O.[Cl-].[Cl-].[Mn+2]` show?
55.4

Bench note: what R₂ did `N[C@@H](Cc1ccccc1)C(=O)O.N[C@@H](Cc1ccccc1)C(=O)O.O.O.[Cl-].[Cl-].[Mn+2]` show?
59.7

Bench note: what R₂ did `NCCCC[C@H](N)C(=O)O.NCCCC[C@H](N)C(=O)O.O.O.[Cl-].[Cl-].[Mn+2]` show?
56.6
